ASSAY_TEXT: physchem
CONDITION_INFO: buffer, pH 7.4
Measured solubility at 1.5 h, 200 µM, listed per entry for reference.

Look over these answered cases.
[
  {
    "SMILES_STRING": "Oc1cccc(-c2nc(N3CCOCC3)c3oc4ncccc4c3n2)c1",
    "solubility at 1.5 h, 200 µM": "3.4 µM"
  },
  {
    "SMILES_STRING": "O=C(Nc1ccc(CCO)cc1)Nc1ccc(-c2nc(N3CCOCC3)c3ncccc3n2)cc1",
    "solubility at 1.5 h, 200 µM": "< 2 µM"
  },
  {
    "SMILES_STRING": "CCC(=O)c1ccc(NC(=O)Nc2ccc(-c3nc(N4CCOCC4)c4cccnc4n3)cc2)cc1",
    "solubility at 1.5 h, 200 µM": "11.4 µM"
  },
  {
    "SMILES_STRING": "O=C(Nc1ccc(-c2nc(N3CCOCC3)c3cccnc3n2)cc1)Nc1ccc(S(=O)(=O)Nc2ccccc2)cc1",
    "solubility at 1.5 h, 200 µM": "< 2 µM"
  },
  {
    "SMILES_STRING": "CCOC(=O)c1ccc(NC(=O)Nc2ccc(-c3nc(N4CCOCC4)c4cccnc4n3)cc2)cc1",
    "solubility at 1.5 h, 200 µM": "< 2 µM"
  }
]

Item under review: `O=C(Nc1ccc(-c2nc(N3CCOCC3)c3ncccc3n2)cc1)Nc1ccc(S(=O)(=O)Nc2ccccc2)cc1` . Reported solubility at 1.5 h, 200 µM?
< 2 µM

And for `O=C(Nc1ccc(-c2nc(N3CCOCC3)c3ncccc3n2)cc1)Nc1ccc(S(=O)(=O)Nc2ccc(F)cc2)cc1` ?
< 2 µM

And for `O=C(Nc1ccccc1)Nc1ccc(-c2nc(N3CCOCC3)c3ncccc3n2)cc1` ?
< 2 µM

And for `O=C(Nc1ccc(-c2nc(N3CCOCC3)c3cccnc3n2)cc1)Nc1cccc(CO)c1` ?
21.8 µM

And for `CC(=O)c1ccc(NC(=O)Nc2ccc(-c3nc(N4CCOCC4)c4cccnc4n3)cc2)cc1` ?
< 2 µM

And for `O=C(Nc1ccc(-c2nc(N3CCOCC3)c3cccnc3n2)cc1)Nc1ccc(S(=O)(=O)Nc2ccc(F)cc2)cc1` ?
4.2 µM

And for `O=C(Nc1ccc(C(=O)CCl)cc1)Nc1ccc(-c2nc(N3CCOCC3)c3ncccc3n2)cc1` ?
< 2 µM

And for `O=C(Nc1ccc(-c2nc(N3CCOCC3)c3cccnc3n2)cc1)Nc1ccc(S(=O)(=O)Nc2ccc(F)cc2F)cc1` ?
< 2 µM

And for `O=C(Nc1ccc(-c2nc(N3CCOCC3)c3ncccc3n2)cc1)Nc1ccc(S(=O)(=O)Nc2ccc(F)cc2F)cc1` ?
< 2 µM
